Biological target: human ether-à-go-go-related gene (hERG) potassium channel (human)
Sequence (Q12809 whole entry, looked up): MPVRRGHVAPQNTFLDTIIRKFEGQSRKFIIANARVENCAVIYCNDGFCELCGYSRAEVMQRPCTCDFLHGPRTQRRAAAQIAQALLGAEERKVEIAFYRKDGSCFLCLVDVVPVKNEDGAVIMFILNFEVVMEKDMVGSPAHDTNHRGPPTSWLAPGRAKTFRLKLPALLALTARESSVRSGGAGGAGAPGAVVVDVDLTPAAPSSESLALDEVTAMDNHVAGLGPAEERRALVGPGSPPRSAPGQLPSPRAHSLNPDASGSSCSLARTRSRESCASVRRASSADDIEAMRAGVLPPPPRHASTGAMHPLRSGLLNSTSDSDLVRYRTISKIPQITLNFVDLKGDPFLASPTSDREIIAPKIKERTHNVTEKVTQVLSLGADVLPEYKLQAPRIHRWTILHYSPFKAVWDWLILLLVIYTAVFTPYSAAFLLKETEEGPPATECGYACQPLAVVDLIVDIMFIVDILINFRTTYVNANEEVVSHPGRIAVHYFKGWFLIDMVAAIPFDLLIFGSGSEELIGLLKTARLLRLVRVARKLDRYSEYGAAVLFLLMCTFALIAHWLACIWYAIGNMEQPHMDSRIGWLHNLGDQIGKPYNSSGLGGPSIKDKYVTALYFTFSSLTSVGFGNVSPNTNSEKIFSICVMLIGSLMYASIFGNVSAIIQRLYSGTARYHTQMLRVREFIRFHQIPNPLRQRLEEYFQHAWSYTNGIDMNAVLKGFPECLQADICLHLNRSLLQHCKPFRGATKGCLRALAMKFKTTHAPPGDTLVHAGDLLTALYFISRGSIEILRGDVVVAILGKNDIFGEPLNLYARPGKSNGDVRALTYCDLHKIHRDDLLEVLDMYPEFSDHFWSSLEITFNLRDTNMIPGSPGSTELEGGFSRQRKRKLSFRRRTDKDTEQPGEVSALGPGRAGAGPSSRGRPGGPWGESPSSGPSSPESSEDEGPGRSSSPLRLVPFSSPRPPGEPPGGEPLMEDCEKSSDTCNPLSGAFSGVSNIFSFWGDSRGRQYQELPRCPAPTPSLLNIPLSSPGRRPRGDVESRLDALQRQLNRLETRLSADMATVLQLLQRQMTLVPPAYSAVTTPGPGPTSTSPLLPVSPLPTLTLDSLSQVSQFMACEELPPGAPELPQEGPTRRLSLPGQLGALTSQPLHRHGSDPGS
Assay: primary screen, population patch clamp on CHO cells stably expressing hERG; higher = less effect of the substance
Screen size: about 310,000 compounds; about 2,200 (0.71%) showed an effect of 50% or more. Effects have a minus sign here. The entries come from a sample that favours strong results as a whole.
Recorded hERG current change (%, negative = inhibition) at 1uM, one value per entry.
Your answer should be a plain number; it is taken to be in %.

Previously resolved entries follow.
C/C(=N\N1CCN(c2ccc(Cl)cc2)CC1)c1cccs1; 4.52
CC1CN(S(=O)(=O)c2cccc(C(=O)NCC3COc4ccccc4O3)c2)CC(C)O1 (centres unmarked); 0.895
O=C(c1nc2ccccn2c1CN1CCCC(OCc2ccccc2)C1)N1CCCC1 (centres unmarked); -25.7
C(=C\c1ccccc1)/CSc1nnc(-c2ccccc2)n1Cc1ccco1; -45.4
COCCSc1nnc(NC(=O)C2CC(=O)N(C3CCCC3)C2)s1 (centres unmarked); 16

Reported hERG current change (%, negative = inhibition) at 1uM of COc1ccc(COc2ccc(S(=O)(=O)N3CCCC3)cc2C(N)=O)cc1F : 17.7

Reported hERG current change (%, negative = inhibition) at 1uM of COc1ccc(-c2cc(C)no2)cc1S(=O)(=O)N(C)c1cccc(C)c1 : -62.5

Reported hERG current change (%, negative = inhibition) at 1uM of COc1cccc(CCN2CCC(CNS(=O)(=O)c3cc(-c4cc(C)no4)ccc3C)CC2)c1 : -20.1

====

Molecular target: human ether-à-go-go-related gene (hERG) potassium channel (human)
Experiment: primary screen, population patch clamp on CHO cells stably expressing hERG; higher = less effect of the substance
The whole screen tested about 310,000 compounds, of which about 2,200 (0.71%) showed an effect of 50% or more. Effects have a minus sign here. Many of the other results were omitted from the sample, so strong results are more common in it than they were.
# cutoff -40% applies to hERG current change (%, negative = inhibition) at 1uM; >= gives YES, < gives NO

O=C(c1cnn2c(C(F)(F)F)cc(-c3ccco3)nc12)N1CCCc2ccccc21; YES

**Query** Has CCc1cc2c(NCCN3CCCCC3)ncnc2s1.Cl a recorded hERG current change (%, negative = inhibition) at 1uM greater than or equal to -40%?
**Result** NO

**Query** Has COc1cc(OC)cc(C(=O)N2CCN(C3CCCCC3)CC2)c1.O=C(O)C(=O)O a recorded hERG current change (%, negative = inhibition) at 1uM greater than or equal to -40%?
**Result** YES

**Query** Has O=C(Nc1ccnn1C1CCN(Cc2cccnc2)CC1)c1ccccc1Cl a recorded hERG current change (%, negative = inhibition) at 1uM greater than or equal to -40%?
**Result** YES

**Query** Has O=C(NC1(C(F)(F)F)NC(=O)N(Cc2cccnc2)C1=O)c1ccncc1 (centres unmarked) a recorded hERG current change (%, negative = inhibition) at 1uM greater than or equal to -40%?
**Result** YES

**Query** Has CCOc1ccccc1NC(=O)C(NCCN(C)C)c1ccccc1.O=C(O)C(=O)O (centres unmarked) a recorded hERG current change (%, negative = inhibition) at 1uM greater than or equal to -40%?
**Result** NO

**Query** Has O=C(N=C1SC2CS(=O)(=O)CC2N1CCc1ccccc1)C1CC1 (centres unmarked) a recorded hERG current change (%, negative = inhibition) at 1uM greater than or equal to -40%?
**Result** YES

**Query** Has O=C(Nc1ccnn1C1CCN(Cc2ccccc2)CC1)c1ccccc1Cl a recorded hERG current change (%, negative = inhibition) at 1uM greater than or equal to -40%?
**Result** NO

**Query** Has COc1ccc(C(=O)N2CCCN(C)CC2)c(OC)c1 a recorded hERG current change (%, negative = inhibition) at 1uM greater than or equal to -40%?
**Result** YES

**Query** Has CC1CCCCN1C(=O)C(Cc1ccccc1)N1C(=O)C2CCCCC2C1=O (centres unmarked) a recorded hERG current change (%, negative = inhibition) at 1uM greater than or equal to -40%?
**Result** YES

**Query** Has CC(CN1CCC(n2nccc2NC(=O)c2ccccc2Cl)CC1)c1ccccc1 (centres unmarked) a recorded hERG current change (%, negative = inhibition) at 1uM greater than or equal to -40%?
**Result** NO

**Query** Has CCc1cc2c(N3CCCCC3)ncnc2s1.Cl a recorded hERG current change (%, negative = inhibition) at 1uM greater than or equal to -40%?
**Result** YES

**Query** Has Cc1ccccc1C(=O)Nc1ccnn1C1CCN(Cc2cccnc2)CC1 a recorded hERG current change (%, negative = inhibition) at 1uM greater than or equal to -40%?
**Result** NO

**Query** Has CCc1cc2c(NCCO)ncnc2s1 a recorded hERG current change (%, negative = inhibition) at 1uM greater than or equal to -40%?
**Result** YES

**Query** Has COc1ccc(-n2nc3c(N4CCC(C(=O)NCCc5ccco5)CC4)nnc(C)c3c2C)cc1 a recorded hERG current change (%, negative = inhibition) at 1uM greater than or equal to -40%?
**Result** YES

**Query** Has CCOc1ccccc1NC(=O)C(NCC1(N2CCCCC2)CCCCC1)c1ccccc1.O=C(O)C(=O)O (centres unmarked) a recorded hERG current change (%, negative = inhibition) at 1uM greater than or equal to -40%?
**Result** NO

**Query** Has CC(CCN1CCC(n2nccc2NC(=O)c2ccccc2Cl)CC1)c1ccccc1 (centres unmarked) a recorded hERG current change (%, negative = inhibition) at 1uM greater than or equal to -40%?
**Result** NO

====

Recorded hERG current change (%, negative = inhibition) at 1uM, one value per entry.
Biological target: human ether-à-go-go-related gene (hERG) potassium channel (human)
Assay: primary screen, population patch clamp on CHO cells stably expressing hERG; higher = less effect of the substance
Screen size: about 310,000 compounds; about 2,200 (0.71%) showed an effect of 50% or more. The effect is printed as a negative number. This is one part of a sample in which strong results are shown more often than they occur.
Your answer should be a plain number; it is taken to be in %.

Previously resolved entries follow.
O=C(NCc1ccccc1)C1(C(F)(F)F)C/C(=C\CCO)CCCO1 (centres unmarked); 14.1
CCn1cc(C(=O)NCCCN2CC(C)CC(C)C2)c(=O)c2cc(S(=O)(=O)N(C)C3CCCCC3)ccc21 (centres unmarked); -91.4
c1ccc2c(c1)CCCn1nnnc1-2; 6.71

Reported hERG current change (%, negative = inhibition) at 1uM of CCCCN(CC)CCCNC(=O)c1cn(CC)c2ccc(S(=O)(=O)N3CCc4ccccc4C3)cc2c1=O : -71.9

Reported hERG current change (%, negative = inhibition) at 1uM of CCCN(CCC)CCCNC(=O)c1cn(CC)c2ccc(S(=O)(=O)N3CCc4ccccc4C3)cc2c1=O : -47.9

====

Biological target: human ether-à-go-go-related gene (hERG) potassium channel (human)
Test: primary screen, population patch clamp on CHO cells stably expressing hERG; higher = less effect of the substance
Screen size: about 310,000 compounds; about 2,200 (0.71%) showed an effect of 50% or more. Effects have a minus sign here. The entries come from a sample that favours strong results as a whole.
Recorded hERG current change (%, negative = inhibition) at 1uM, one value per entry.
Your answer should be a plain number; it is taken to be in %.

CCC1C(=O)C(C)(C)C(=O)OC1c1ccc([N+](=O)[O-])cc1 (stereo not shown); 9.82

Now turn to the next compound.
The recorded hERG current change (%, negative = inhibition) at 1uM with human ether-à-go-go-related gene (hERG) potassium channel (human) for Cn1c(SCCCC(=O)c2ccc(F)cc2)nnc1-c1ccncc1 was -38.5

====

Recorded hERG current change (%, negative = inhibition) at 1uM, one value per entry.
Target: human ether-à-go-go-related gene (hERG) potassium channel (human)
Assay: primary screen, population patch clamp on CHO cells stably expressing hERG; higher = less effect of the substance
Out of some 310,000 compounds screened, about 2,200 (0.71%) showed an effect of 50% or more. The effect is printed as a negative number. Many of the other results were omitted from the sample, so strong results are more common in it than they were.
Your answer should be a plain number; it is taken to be in %.

Previously resolved entries follow.
COCCNC(=S)N1CCN(c2ccc(Cl)cc2)CC1; 1.27
Cn1cnnc1SCC(=O)Nc1sc2c(c1C(N)=O)CCC2; 13.3
CCCCNC(=O)N1CCCN(c2ccc(C#N)cn2)CC1; -11.6
Cc1cc(C(=O)NC2CC(C)(C)Cc3c2cnn3-c2cccc(F)c2)nn1C (centres unmarked); 9.79
CN(C)c1ccc(/C=C/C(=O)c2ccccc2)cc1[N+](=O)[O-]; -0.74

Reported hERG current change (%, negative = inhibition) at 1uM of CCNC(=S)N1CCN(c2ccc([N+](=O)[O-])cc2)CC1 : -50.5

Reported hERG current change (%, negative = inhibition) at 1uM of O=C(CNC(=O)c1ccc(Br)cc1)NCC(=O)OCC(=O)c1ccccc1 : 9.69

Reported hERG current change (%, negative = inhibition) at 1uM of COCCCNC(=S)N1CCN(c2ccccc2)CC1 : 18.3
